Values were extracted from ChEMBL document CHEMBL4808226.

Test: Metabolic stability in human liver microsomes assessed as half life at 2 uM measured up to 30 mins in presence of NADPH by LC-MS/MS analysis
Type: ADME, Microsome
Details: microsomes, 0.5 h, 2 µM
MEASUREMENT_NAME: t1/2

# RECORD_SMILES, EXPERIMENTAL_RESULT
data = [
    ("O=C(Nc1ccc(Cl)c(Cl)c1)N1CCN(c2ccc3nncn3n2)CC1", "> 30 min"),
    ("O=C(Cc1ccc(Cl)cc1)N1CCN(c2ccc3nncn3n2)CC1", "> 30 min"),
    ("O=C(Nc1ccc(Cl)c(Cl)c1)N1CCC(c2ccc3nncn3n2)CC1", "> 30 min"),
    ("O=C(Cc1ccc(Cl)c(Cl)c1)N1CCN(c2ccc3nncn3n2)CC1", "> 30 min"),
    ("O=C(Nc1ccc(Cl)cc1)N1CCN(c2ccc3nncn3n2)CC1", "> 30 min"),
]

Now consider the entry below.
For record O=C(Cc1ccc(Cl)c(Cl)c1)N1CCC(c2ccc3nncn3n2)CC1 the listed t1/2 is 7.8 min
